# ASSAY TEXT: NCI Yeast Anticancer Drug Screen. Data for the cln2 rad14 strain (AID 165);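 also: 0% = growth equal to vehicle treated cultures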
# TEST CONTEXT: S. cerevisiae cln2 rad14 strain, at 50.0 µM
Compounds without any hit were thinned out: in the full panel of roughly 79,000, 15% have a hit. The source made the active and inactive calls. Rule as the data show it: active = growth inhibition above about 70%; inactive = the rest.
Outcomes you can answer with include only these: 1 (active), 0 (inactive)

Req: Per the assay record, what outcome was assigned to CCCCCC(CN(C)C)C(O)/C=C\c1ccccc1 (configuration not stated) ?
Resp: 0

Req: Per the assay record, what outcome was assigned to CNc1cc(SC)nc(N)n1 ?
Resp: 1

Req: Per the assay record, what outcome was assigned to CC1(C)CCC2(CC1)CC(=O)OC(=O)C2 ?
Resp: 0

Req: Per the assay record, what outcome was assigned to CCCCCCCCC1OC1CCCCCCCC(=O)OCC1CO1 (configuration not stated) ?
Resp: 0

Req: Per the assay record, what outcome was assigned to Cc1cc(Cl)n2c(nc3ccccc32)c1C#N ?
Resp: 1

Req: Per the assay record, what outcome was assigned to CCOC(=O)C(CC)(CCc1ccccc1[N+](=O)[O-])C(=O)OCC ?
Resp: 0

Req: Per the assay record, what outcome was assigned to CCCN(CCC)C(=O)c1cccc2ccccc12 ?
Resp: 0

Req: Per the assay record, what outcome was assigned to O=[N+]([O-])c1cccc2c[n+](Cc3ccccc3)ccc12 ?
Resp: 0

Req: Per the assay record, what outcome was assigned to CC(=O)/C(=C\c1cccs1)C(=O)CCN(C)C ?
Resp: 0

Req: Per the assay record, what outcome was assigned to O=c1cccccc1O.O=c1cccccc1O.O=c1cccccc1O.[Ru] ?
Resp: 0

Req: Per the assay record, what outcome was assigned to COC(=O)c1cccc2c3ccccc3c3ccccc3c12 ?
Resp: 1

Req: Per the assay record, what outcome was assigned to CCCCCCCCCCCC(=O)[O][Sn]([CH2]C)([CH2]C)[O]C(=O)CCCCCCCCCCC ?
Resp: 0
